Reported IC50 values follow for various molecules
- Tested on: Endogenous Huntingtin Protein
- protocol: Endogenous Huntingtin Protein Assay (Meso Scale Discovery ELISA-based electrochemiluminescence)
- Type: cell-based
- conditionSet: MSD plates coated with MW1 (expanded polyglutamine) or MAB2166 capture antibody; lysates
observedProperty: IC50

molecule	observedProperty	reportedResult
CC1(C)CC(n2nnc3cc(-c4ccc(-c5cnc6nn[nH]c6c5)cc4O)nnc32)CC(C)(C)N1 [Cpd 145]	IC50	1000 to 3000 nM
CC1(C)CC(n2cnc3nc(-c4cc(F)c(-c5cn[nH]c5)cc4F)cnc32)CC(C)(C)N1 [Cpd 2]	IC50	100 to 500 nM
CC1(C)CC(n2nnc3cc(-c4ccc(-n5cncn5)cc4O)nnc32)CC(C)(C)N1 [Cpd 63]	IC50	≤ 100 nM
Cc1ccnn1-c1ccc(-c2cc3nnn(C4CC(C)(C)NC(C)(C)C4)c3nn2)c(O)c1 [Cpd 155]	IC50	3000 to 9000 nM
CC1(C)CC(n2nnc3cc(-c4ccc(-c5cnc6nccn6c5)cc4O)nnc32)CC(C)(C)N1 [Cpd 160]	IC50	100 to 500 nM
CC1(C)CC(n2ncc3cc(-c4ccc(-c5ccncc5)cc4O)nnc32)CC(C)(C)N1 [Cpd 165]	IC50	≤ 100 nM
CC1(C)CC(n2nnc3cc(-c4ccc(-c5ccc6nncn6n5)cc4O)nnc32)CC(C)(C)N1 [Cpd 152]	IC50	100 to 500 nM
CC1(C)CC(n2nnc3cc(-c4ccc(-c5c[nH]nc5Br)cc4O)nnc32)CC(C)(C)N1 [Cpd 137]	IC50	≤ 100 nM
CC1(C)CC(n2nnc3cc(-c4cc(Cl)c(-c5cn[nH]c5)cc4O)nnc32)CC(C)(C)N1 [Cpd 83]	IC50	≤ 100 nM
CC1(C)CC(n2nnc3cc(-c4ncc(-c5cn[nH]c5)cc4O)nnc32)CC(C)(C)N1 [Cpd 140]	IC50	≤ 100 nM
CC1(C)CC(n2nnc3cc(-c4ccc(-c5ccncc5)cc4O)nnc32)CC(C)(C)N1 [Cpd 66]	IC50	≤ 100 nM
CC1(C)CC(n2nnc3cc(-c4ccc(-n5cccn5)cc4O)nnc32)CC(C)(C)N1 [Cpd 34]	IC50	100 to 500 nM
CC1(C)CC(N2CCc3cc(-c4ccc(-c5cn[nH]c5)c(F)c4F)nnc32)CC(C)(C)N1 [Cpd 32]	IC50	100 to 500 nM
CC1(C)CC(n2nnc3cc(-c4cc(O)c(-c5cn[nH]c5)cc4O)nnc32)CC(C)(C)N1 [Cpd 58]	IC50	100 to 500 nM
Cn1cc(-c2ccc(-c3cc4cnn(C5CC(C)(C)NC(C)(C)C5)c4nn3)c(O)c2)c(F)n1 [Cpd 148]	IC50	≤ 100 nM
CC1(C)CC(n2ncc3cc(-c4ccc(-c5cn[nH]c5)cc4O)nnc32)CC(C)(C)N1 [Cpd 22]	IC50	≤ 100 nM
